Tested on: BDF1 mice, B16 melanoma ip, median survival T/C
Assay: NCI In Vivo Anticancer Drug Screen. Data for tumor model B16 Melanoma (intraperitoneal) in B6D2F1 (BDF1) mice
Settings: endpoint: median survival time; dose: 6.0 mg/kg/injection; schedule: Q01DX009 (ip); vehicle: saline with Tween-80
Toxic doses and inconclusive results are not listed. The calls were made as follows: active = survival T/C of 150% or more; inactive = T/C below 125% in these data.
Possible outcomes: active, inactive

{"compound": "O=C1NC(Cc2ccc(N(CCCl)CCCl)cc2)C(=O)O1 (centres undefined)", "class": "active"}
{"compound": "C=C1C(=O)O[C@@H]2/C=C(/C)[C@@]3(O)C=C[C@](C)(C[C@@H](OC(=O)/C(=C\\C)COC(C)=O)[C@@H]12)O3", "class": "inactive"}
{"compound": "CSC(=S)N/N=C/c1ccccn1", "class": "inactive"}
{"compound": "CN=S(=O)(OCCCCCOS(=O)(=NC)c1ccccc1)c1ccccc1 (centres undefined)", "class": "inactive"}

Every entry's value here was drawn from PubChem BioAssay AID192.
